- Test system: NF-κB
- experimentSummary: NF-κB GFP Assay (NFκB/Jurkat/GFP transcriptional reporter cell line)
- Type: cell-based
- testContext: Homo sapiens; NF-κB/Jurkat/GFP reporter cells, TNF-α 5 ng/ml, 24 hours; read-out: NF-KB GFP IC50
pIC50: −log10 of the molar value.
Listed compounds paired with reported pIC50

chemicalStructure: CC(=O)OCCCCOc1ccc2cc3c(=O)[nH]c(=O)nc-3oc2c1
systemTested: NF-κB
pIC50: > 5.30

chemicalStructure: COC(=O)CCCCOc1ccc2cc3c(=O)[nH]c(=O)nc-3oc2c1Cl
systemTested: NF-κB
pIC50: > 4.70

chemicalStructure: CCCc1cc2oc3nc(=O)[nH]c(=O)c-3cc2cc1Cl
systemTested: NF-κB
pIC50: > 4.52

chemicalStructure: CCCCCOc1cc2oc3nc(=O)[nH]c(=O)c-3cc2cc1F
systemTested: NF-κB
pIC50: > 5.00

chemicalStructure: COCCOCCOc1cc2oc3nc(=O)[nH]c(=O)c-3cc2cc1Cl
systemTested: NF-κB
pIC50: > 5.30

chemicalStructure: CC(=O)OCCCOc1ccc2cc3c(=O)[nH]c(=O)nc-3oc2c1Cl
systemTested: NF-κB
pIC50: > 4.70

chemicalStructure: CC(C)CCOc1ccc2cc3c(=O)[nH]c(=O)nc-3oc2c1Cl
systemTested: NF-κB
pIC50: 5.30

chemicalStructure: COCCOCCOc1ccc2cc3c(=O)[nH]c(=O)nc-3oc2c1F
systemTested: NF-κB
pIC50: > 5.30

chemicalStructure: CC(C)CCCOc1ccc2cc3c(=O)[nH]c(=O)nc-3oc2c1F
systemTested: NF-κB
pIC50: > 5.30

chemicalStructure: COCCCCOc1ccc2cc3c(=O)[nH]c(=O)nc-3oc2c1
systemTested: NF-κB
pIC50: > 5.30

chemicalStructure: CC(C)(C)CCOc1cc2oc3nc(=O)[nH]c(=O)c-3cc2cc1F
systemTested: NF-κB
pIC50: 5.00

chemicalStructure: COc1cccc2cc3c(=O)[nH]c(=O)nc-3oc12
systemTested: NF-κB
pIC50: > 4.52

chemicalStructure: CCOc1cc(Cl)cc2cc3c(=O)[nH]c(=O)nc-3oc12
systemTested: NF-κB
pIC50: > 4.52

chemicalStructure: CCCCCCOc1ccc2cc3c(=O)[nH]c(=O)nc-3oc2c1
systemTested: NF-κB
pIC50: > 5.30

chemicalStructure: COCCOCCCOc1ccc2cc3c(=O)[nH]c(=O)nc-3oc2c1F
systemTested: NF-κB
pIC50: > 5.30

chemicalStructure: CCCCOc1ccc2cc3c(=O)[nH]c(=O)nc-3oc2c1Cl
systemTested: NF-κB
pIC50: > 5.52

chemicalStructure: CCOc1ccc2cc3c(=O)[nH]c(=O)nc-3sc2c1
systemTested: NF-κB
pIC50: > 5.30

chemicalStructure: CCCCOc1ccc2cc3c(=O)[nH]c(=O)nc-3oc2c1
systemTested: NF-κB
pIC50: > 5.30

chemicalStructure: Cc1cc2oc3nc(=O)[nH]c(=O)c-3cc2cc1F
systemTested: NF-κB
pIC50: > 5.30

chemicalStructure: COCCCCOc1ccc2cc3c(=O)[nH]c(=O)nc-3oc2c1F
systemTested: NF-κB
pIC50: > 5.30

// data source = patent US10226464B2
